tested on: Saccharomyces cerevisiae; assay: protein stability index of tFT-peptide fusion in wild type (PSI (0-1 scale)); higher = more stable (slower turnover); details: genetic background: wild type
MEASUREMENT_NAME: protein stability index
Enter a number only.

These recorded examples may help you get a feel for the data.
residue_string=RLIQPLPVQFLNY study_system="Saccharomyces cerevisiae" measurement_name="protein stability index" experimental_value=0.433
residue_string=LKILRQCMNHQN study_system="Saccharomyces cerevisiae" measurement_name="protein stability index" experimental_value=0.288
residue_string=CTSCGEKFRTNN study_system="Saccharomyces cerevisiae" measurement_name="protein stability index" experimental_value=0.523
residue_string=CVVSLPILLFFR study_system="Saccharomyces cerevisiae" measurement_name="protein stability index" experimental_value=0.0506
residue_string=PDKRNHMIKLLN study_system="Saccharomyces cerevisiae" measurement_name="protein stability index" experimental_value=0.0922

protein stability index in this record for RSLRVLSPLYFR : 0.308

protein stability index in this record for VRGAVGGWRLVA : 0.151

---

system: Saccharomyces cerevisiae; assay: protein stability index of tFT-peptide fusion (C-terminal peptide) (PSI (0-1 scale)); higher = more stable (slower turnover); conditions: genetic background: wild type; temperature: 30 C
Catalogue of sequences with associated protein stability index
Enter a number only.

These recorded examples may help you get a feel for the data.
residue_string=GTRGGGGWSCES experimental_value=0.701
residue_string=SFLGLDDEICLR experimental_value=0.716
residue_string=WGRNGRRMEVTK experimental_value=0.687
residue_string=WWVGVVGCGSGA experimental_value=0.676
residue_string=PLPPPRPPPSPP experimental_value=0.603
residue_string=PPPSFPDWRYRW experimental_value=0.755

Turning now to a further record.
Result for DMSQKSENKKLI , tested on Saccharomyces cerevisiae, protein stability index: 0.689

---

tested on: Saccharomyces cerevisiae; test: protein stability index of tFT-peptide fusion (C-terminal peptide) (PSI (0-1 scale)); higher = more stable (slower turnover); details: genetic background: wild type; temperature: 30 C
MEASUREMENT_NAME: protein stability index
Enter a number only.

residue_string=HFLLAFMLCFGQ experimental_value=0.356
residue_string=CYKYTYVKNNMI experimental_value=0.231

Turning now to a further record.
Result for FPCRNFMVFFCF , tested on Saccharomyces cerevisiae, protein stability index: 0.204

---

Catalogue of sequences with associated protein stability index
tested on: Saccharomyces cerevisiae; assay: protein stability index of tFT-peptide fusion (C-terminal peptide) (PSI (0-1 scale)); higher = more stable (slower turnover); details: genetic background: das1 deletion; temperature: 37 C

These recorded examples may help you get a feel for the data.
residue_string=SSLAKFQLISTY study_system="Saccharomyces cerevisiae" experimental_value=0.508
residue_string=FYIRFYVYSWLF study_system="Saccharomyces cerevisiae" experimental_value=0.492
residue_string=AELLMLRIFFLF study_system="Saccharomyces cerevisiae" experimental_value=0.491
residue_string=VVFVRLGWMRAC study_system="Saccharomyces cerevisiae" experimental_value=0.59
residue_string=LVCLTPPPSPFS study_system="Saccharomyces cerevisiae" experimental_value=0.514

protein stability index in this record for WFLVFLRVGDGP : 0.6

protein stability index in this record for ACGAGFIILLGL : 0.65

protein stability index in this record for YTQKFTFYGLPA : 0.727

protein stability index in this record for VGVVVAIGLVRM : 0.546

protein stability index in this record for RNTLLFKRILHI : 0.77

protein stability index in this record for WLCWVVWFPGLF : 0.541

protein stability index in this record for LFNRCCTILVVW : 0.343

---

system: Saccharomyces cerevisiae; experiment: protein stability index of tFT-peptide fusion (C-terminal peptide) (PSI (0-1 scale)); higher = more stable (slower turnover); conditions: genetic background: wild type; temperature: 30 C
MEASUREMENT_NAME: protein stability index
Enter a number only.

These recorded examples may help you get a feel for the data.
residue_string=AGARPEGPRWGE experimental_value=0.703
residue_string=SRACTRRSHTLE experimental_value=0.681
residue_string=LANVGLDVSRIS experimental_value=0.696
residue_string=ASQPNRIPSPPR experimental_value=0.71
residue_string=PGDSALVLVTPQ experimental_value=0.703

Turning now to a further record.
Result for LSSLPSTFPPLP , tested on Saccharomyces cerevisiae, protein stability index: 0.692

---

tested on: Saccharomyces cerevisiae; assay: protein stability index of tFT-peptide fusion in wild type (PSI (0-1 scale)); higher = more stable (slower turnover); settings: genetic background: wild type
Catalogue of sequences with associated protein stability index
Enter a number only.

These recorded examples may help you get a feel for the data.
residue_string=LNVYLSCVACIN experimental_value=0.043
residue_string=MLVSLPILLFFR experimental_value=0.089
residue_string=RSVRVLLPLYFR experimental_value=0.238
residue_string=CTSCGYKVRTNN experimental_value=0.388
residue_string=AITLAMCPLLLR experimental_value=0.418
residue_string=PDKRNYLIKLLN experimental_value=0.119
residue_string=PDKRNHNIKLLN experimental_value=0.172
residue_string=PDKRGHLIKLLN experimental_value=0.113

Turning now to a further record.
protein stability index in this record for LKALRQKMNHQN : 0.213

---

system: Saccharomyces cerevisiae; assay: protein stability index of tFT-peptide fusion (C-terminal peptide) (PSI (0-1 scale)); higher = more stable (slower turnover); settings: genetic background: wild type; temperature: 37 C
MEASUREMENT_NAME: protein stability index
Enter a number only.

These recorded examples may help you get a feel for the data.
residue_string=LRKARLFLKAKC experimental_value=0.384
residue_string=FPFPLSSFLLLY experimental_value=0.444
residue_string=KFWVVLIEIKYH experimental_value=0.104
residue_string=CLNPCVRWDGHV experimental_value=0.732
residue_string=VRFGYGRIVWDI experimental_value=0.68
residue_string=CFVISVLFFFVG experimental_value=0.436

Result for LCCTLFFCYSYH , tested on Saccharomyces cerevisiae, protein stability index: 0.617

Result for FKWVSRIRLLDA , tested on Saccharomyces cerevisiae, protein stability index: 0.411

Result for VSIRVVVWVSWG , tested on Saccharomyces cerevisiae, protein stability index: 0.223

Result for ERNERKYKIKIT , tested on Saccharomyces cerevisiae, protein stability index: 0.461

Result for GRGLRVCWVWSG , tested on Saccharomyces cerevisiae, protein stability index: 0.387

Result for VAGGFWCWGMVG , tested on Saccharomyces cerevisiae, protein stability index: 0.677

Result for KSRLFCFVYFLL , tested on Saccharomyces cerevisiae, protein stability index: 0.17

---

system: Saccharomyces cerevisiae; test: protein stability index of tFT-peptide fusion (C-terminal peptide) (PSI (0-1 scale)); higher = more stable (slower turnover); conditions: genetic background: das1 deletion; temperature: 30 C
Classification field: enter 1 (yes) for protein stability index values not below 0.4, 0 (no) for values below it.

Below are worked cases with known answers.
residue_string=VIRIRLSCSVDV study_system="Saccharomyces cerevisiae" label_class="0 (no)"
residue_string=FWHGRCPGLYLV study_system="Saccharomyces cerevisiae" label_class="1 (yes)"
residue_string=AFFGIYLICFIV study_system="Saccharomyces cerevisiae" label_class="0 (no)"
residue_string=CRQDWMCFVYLS study_system="Saccharomyces cerevisiae" label_class="0 (no)"
residue_string=DKVTLLRRCKQY study_system="Saccharomyces cerevisiae" label_class="1 (yes)"

Problem: State whether the measured protein stability index reaches 0.4, counting equality as reaching it, for LLVRYRRALVLL
Result: 1 (yes)

Problem: State whether the measured protein stability index reaches 0.4, counting equality as reaching it, for NWAIEIRSVKIV
Result: 1 (yes)

Problem: State whether the measured protein stability index reaches 0.4, counting equality as reaching it, for RVVNRWGVCFLG
Result: 1 (yes)

Problem: State whether the measured protein stability index reaches 0.4, counting equality as reaching it, for WVVLVCGFVLLG
Result: 0 (no)

Problem: State whether the measured protein stability index reaches 0.4, counting equality as reaching it, for GVLRMAPGRVMC
Result: 1 (yes)

Problem: State whether the measured protein stability index reaches 0.4, counting equality as reaching it, for IFFYQLYVDRLC
Result: 0 (no)

Problem: State whether the measured protein stability index reaches 0.4, counting equality as reaching it, for EVVFHVFLVGLV
Result: 0 (no)

Problem: State whether the measured protein stability index reaches 0.4, counting equality as reaching it, for VFLLLSLSVFFE
Result: 0 (no)

---

system: Saccharomyces cerevisiae; assay: protein stability index of tFT-peptide fusion (C-terminal peptide) (PSI (0-1 scale)); higher = more stable (slower turnover); conditions: genetic background: wild type; temperature: 30 C
Catalogue of sequences with associated protein stability index
Enter a number only.

residue_string="SAIENYRKAYGI [URA10 C-terminal 12 aa]" experimental_value=0.699
residue_string="PIKIIYNNKCPS [YLL006W-A C-terminal 12 aa]" experimental_value=0.688
residue_string="APRLRLEDIFQQ [RET1 C-terminal 12 aa]" experimental_value=0.7

protein stability index in this record for PFKAIFDAVTKE [ARO1 C-terminal 12 aa] : 0.717

protein stability index in this record for QDRSCSWLKLLL [YLR171W C-terminal 12 aa] : 0.704

protein stability index in this record for FSVEQREKPSNN [GRX6 C-terminal 12 aa] : 0.699

protein stability index in this record for AVKINRNGKPRI [TAO3 C-terminal 12 aa] : 0.685

protein stability index in this record for NEERINSKIFKS [RCF2 C-terminal 12 aa] : 0.696

protein stability index in this record for RRNRGTPVKYTR [DOT1 C-terminal 12 aa] : 0.7

protein stability index in this record for VPYAKILDQCIL [YGL230C C-terminal 12 aa] : 0.721

protein stability index in this record for VRADDLSTRFNI [RRP43 C-terminal 12 aa] : 0.664
